biological target: full-length NS3/NS4A-2 (HCV NS3 protease) (Hepatitis C virus genotype 1a); construct: Recombinant E. coli or Baculovirus full-length NS3 was diluted to 3.33 μM with assay buffer; made in house; host or cells: E. coli or baculovirus (BV) expression system; test: NS3-NS4 protease assay / NS3 inhibition assay (RETS1 substrate, fluorescence kinetic read); assay type: biochemical; conditions: recombinant E. coli or Baculovirus full-length NS3 with NS4A-2; read-out: NS3-NS4 IC50
IC50 overview

Input Smiles	IC50
Cc1ccccc1S(=O)(=O)NC(=O)[C@@]12C[C@H]1/C=C\CCCCC[C@H](NC(=O)OC(C)(C)C)C(=O)N1C[C@H](OC(=O)N3Cc4cccc(F)c4C3)C[C@H]1C(=O)N2	< 100 nM
CC(C)(C)OC(=O)N[C@H]1CCCCC/C=C\[C@@H]2C[C@@]2(C(=O)O)NC(=O)[C@@H]2C[C@@H](OC(=O)Nc3nc4ccccc4s3)CN2C1=O	< 1000 nM
CC(C)(C)OC(=O)N[C@H]1CCCCC/C=C\[C@@H]2C[C@@]2(C(=O)NS(=O)(=O)C2CC2)NC(=O)[C@@H]2C[C@@H](OC(=O)N3Cc4cccc(Cl)c4C3)CN2C1=O	< 100 nM
CC(C)(C)OC(=O)N[C@H]1CCCCC/C=C\[C@@H]2C[C@@]2(C(=O)NS(=O)(=O)Cc2ccccc2Cl)NC(=O)[C@@H]2CCCN2C1=O	< 1000 nM
CC(C)(C)OC(=O)N[C@H]1CCCCC/C=C\[C@@H]2C[C@@]2(C(=O)NS(=O)(=O)NCCc2ccc3ccccc3c2)NC(=O)[C@@H]2CCCN2C1=O	> 10000 nM

The record that follows has no IC50 shown yet.
Hey, full-length NS3/NS4A-2 (HCV NS3 protease) (Hepatitis C virus genotype 1a) data for CC(C)(C)OC(=O)N[C@H]1CCCCC/C=C\[C@@H]2C[C@@]2(C(=O)NS(=O)(=O)C2CC2)NC(=O)[C@@H]2C[C@@H](OC(=O)N3CCc4c(F)ccc(Cl)c4C3)CN2C1=O : IC50 came out at < 100 nM

====

biological target: full-length NS3/NS4A-2 (HCV NS3 protease) (Hepatitis C virus genotype 1a, UniProt P27958); construct: Recombinant E. coli or Baculovirus full-length NS3 was diluted to 3.33 μM with assay buffer; made in house; host or cells: E. coli or baculovirus (BV) expression system; assay: NS3-NS4 protease assay / NS3 inhibition assay (RETS1 substrate, fluorescence kinetic read); assay type: biochemical; details: recombinant E. coli or Baculovirus full-length NS3 with NS4A-2; read-out: NS3-NS4 IC50
Sequence (P27958 1027-1657): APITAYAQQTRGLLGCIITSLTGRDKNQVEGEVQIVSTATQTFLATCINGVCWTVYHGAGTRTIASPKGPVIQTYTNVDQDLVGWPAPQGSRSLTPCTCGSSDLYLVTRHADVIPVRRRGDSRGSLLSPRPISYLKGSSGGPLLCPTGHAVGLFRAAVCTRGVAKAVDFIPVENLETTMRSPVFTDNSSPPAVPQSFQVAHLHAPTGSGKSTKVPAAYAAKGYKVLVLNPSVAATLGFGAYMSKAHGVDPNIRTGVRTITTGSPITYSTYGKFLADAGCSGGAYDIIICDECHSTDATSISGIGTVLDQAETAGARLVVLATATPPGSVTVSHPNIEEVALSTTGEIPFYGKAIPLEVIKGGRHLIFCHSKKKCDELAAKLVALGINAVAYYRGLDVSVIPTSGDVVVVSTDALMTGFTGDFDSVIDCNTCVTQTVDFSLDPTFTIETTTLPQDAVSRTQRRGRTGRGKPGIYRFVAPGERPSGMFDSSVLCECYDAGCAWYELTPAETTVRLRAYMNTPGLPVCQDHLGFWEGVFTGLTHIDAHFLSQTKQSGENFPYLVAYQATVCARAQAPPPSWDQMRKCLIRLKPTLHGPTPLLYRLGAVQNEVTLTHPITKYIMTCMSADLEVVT
IC50 overview

Compound	Measured On	IC50
O=C(N[C@H]1CCCCC/C=C\[C@@H]2C[C@@]2(C(=O)NS(=O)(=O)NC2CC2)NC(=O)[C@@H]2C[C@@H](OC(=O)N3CCc4ccccc4C3)CN2C1=O)OC1CCCC1 [Compound 231]	full-length NS3/NS4A-2 (HCV NS3 protease) (Hepatitis C virus genotype 1a, UniProt P27958)	< 0.1 µM
CNc1c(NC(=O)[C@@]23C[C@H]2/C=C\CCCCC[C@H](NC(=O)OC(C)(C)C)C(=O)N2C[C@H](OC(=O)N4Cc5cccc(F)c5C4)C[C@H]2C(=O)N3)c(=O)c1=O [Compound 646]	full-length NS3/NS4A-2 (HCV NS3 protease) (Hepatitis C virus genotype 1a, UniProt P27958)	< 1 µM
CC(C)(C)OC(=O)N[C@H]1CCCCC/C=C\[C@@H]2C[C@@]2(C(=O)NC2CC2)NC(=O)[C@@H]2C[C@@H](OC(=O)N3Cc4cccc(F)c4C3)CN2C1=O [Compound 609]	full-length NS3/NS4A-2 (HCV NS3 protease) (Hepatitis C virus genotype 1a, UniProt P27958)	< 0.1 µM
CC(C)(C)OC(=O)N[C@H]1CCCCC/C=C\[C@@H]2C[C@@]2(C(=O)NS(=O)(=O)C2CC2)NC(=O)[C@@H]2C[C@@H](OC(=O)N3Cc4ccc(C(F)(F)F)cc4C3)CN2C1=O [Compound 112]	full-length NS3/NS4A-2 (HCV NS3 protease) (Hepatitis C virus genotype 1a, UniProt P27958)	< 0.1 µM
O=C1N[C@]2(C(=O)NS(=O)(=O)C3CC3)C[C@H]2/C=C\CCCCC[C@H](Nc2c(N3CCC3)c(=O)c2=O)C(=O)N2C[C@H](OC(=O)N3Cc4cccc(F)c4C3)C[C@@H]12 [Compound 193]	full-length NS3/NS4A-2 (HCV NS3 protease) (Hepatitis C virus genotype 1a, UniProt P27958)	< 0.1 µM
CC(C)(C)OC(=O)N[C@H]1CCCCC/C=C\[C@@H]2C[C@@]2(C(=O)NS(=O)(=O)c2ccccc2F)NC(=O)[C@@H]2CCCN2C1=O [Compound 2124]	full-length NS3/NS4A-2 (HCV NS3 protease) (Hepatitis C virus genotype 1a, UniProt P27958)	< 10 µM
CC(C)(C)OC(=O)N[C@H]1CCC(F)(F)CC/C=C\[C@@H]2C[C@@]2(C(=O)O)NC(=O)[C@@H]2C[C@@H](OC(=O)N3CCc4ccccc4C3)CN2C1=O [Compound 1013]	full-length NS3/NS4A-2 (HCV NS3 protease) (Hepatitis C virus genotype 1a, UniProt P27958)	< 0.1 µM

Entry CC(C)(C)OC(=O)N[C@H]1CCCCC/C=C\[C@@H]2C[C@@]2(C(=O)NS(=O)(=O)NCCc2ccccc2)NC(=O)[C@@H]2CCCN2C1=O [Compound 2228] , IC50 reported as < 10 µM

Attribution: patent US7829665B2
